# testedTarget: human neurokinin-1 receptor (NK1R) (Homo sapiens, UniProt P25103)
# Construct: the cDNA for the human NK1R was cloned into the expression vector pCDM9; expressed in transfected cells
# Sequence (P25103 whole entry): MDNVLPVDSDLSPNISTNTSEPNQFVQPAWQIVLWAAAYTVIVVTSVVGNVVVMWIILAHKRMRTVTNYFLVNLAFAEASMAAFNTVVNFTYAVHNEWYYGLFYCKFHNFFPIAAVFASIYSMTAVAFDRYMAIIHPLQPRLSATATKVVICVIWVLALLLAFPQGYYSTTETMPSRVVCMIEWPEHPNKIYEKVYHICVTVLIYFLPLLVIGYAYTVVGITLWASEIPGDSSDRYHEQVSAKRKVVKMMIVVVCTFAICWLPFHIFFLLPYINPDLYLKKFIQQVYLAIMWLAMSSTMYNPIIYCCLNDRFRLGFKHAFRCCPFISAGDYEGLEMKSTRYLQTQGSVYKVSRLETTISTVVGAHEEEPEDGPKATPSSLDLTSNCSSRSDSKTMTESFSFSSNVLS
# measurementNotes: Binding assay of human NK1R expressed in COS or CHO cells (125I-substance P competition)
# conditionDescription: 125I-substance P binding to human NK1R expressed in COS or CHO cells
For each entry below, report its pIC50 value.
pIC50 is defined as minus the log10 of a concentration measured in mol/L.

# value lookup — system human neurokinin-1 receptor (NK1R) (Homo sapiens, UniProt P25103), readout pIC50, item "COC[C@@H](O[C@H]1CC[C@@H]2CN(C(=O)N(C)C)C[C@H]2[C@@H]1c1ccccc1C)c1cc(C(F)(F)F)cc(C(F)(F)F)c1"
9.34

Same read-out for "Cc1ccccc1[C@H]1[C@@H]2CN(C(=O)C3CC3)C[C@H]2CC[C@@H]1O[C@H](CO)c1cc(C(F)(F)F)cc(C(F)(F)F)c1" ?
10.22

"O=C1C=C(N2C[C@H]3CC[C@H](O[C@H](CO)c4cc(C(F)(F)F)cc(C(F)(F)F)c4)[C@@H](c4ccc(F)cc4)[C@@H]3C2)CC1" ?
10.05

Data origin: patent US8124633B2
